# Tested on: E18 rat cortical neuron-glia co-culture;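 further: MBP fiber length per Olig2+ nucleus over MBP area × intensity per Olig2+ nucleus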
# measurementDescription: fiber score / MBP score (myelination specific beyond OL differentiation) (ratio); higher = more myelination-specific MBP alignment
# statedConditions: 1 µM; treatment time: 8 days (DIV5-DIV13)
Counter-ions that a name gives are not always drawn.
readoutLabel: fiber score / MBP score
Give the figure only, with no unit attached.

Would you please look over these solved cases?
1. CC(C)C[C@H](NC(=O)[C@@H](COC(C)(C)C)NC(=O)[C@H](Cc1ccc(O)cc1)NC(=O)[C@H](CO)NC(=O)[C@H](Cc1c[nH]c2ccccc12)NC(=O)[C@H](Cc1cnc[nH]1)NC(=O)[C@@H]1CCC(=O)N1)C(=O)N[C@@H](CCCNC(=N)N)C(=O)N1CCC[C@H]1C(=O)NNC(N)=O [Goserelin] = 0.788
2. CNCCC(Oc1ccc(C(F)(F)F)cc1)c1ccccc1 (stereo not drawn) [Fluoxetine hydrochloride] = 0.807

Could you now consider this next compound?
May I ask what fiber score / MBP score has been recorded for CN(C)CCCN1c2ccccc2CCc2ccccc21 [Imipramine] ?
0.817
